Target: human TAS2R1 (Homo sapiens)
Construct: expressed in transfected cells; host or cells: HEK293T-Gα16gust44
Sequence (Q9NYW7 whole entry): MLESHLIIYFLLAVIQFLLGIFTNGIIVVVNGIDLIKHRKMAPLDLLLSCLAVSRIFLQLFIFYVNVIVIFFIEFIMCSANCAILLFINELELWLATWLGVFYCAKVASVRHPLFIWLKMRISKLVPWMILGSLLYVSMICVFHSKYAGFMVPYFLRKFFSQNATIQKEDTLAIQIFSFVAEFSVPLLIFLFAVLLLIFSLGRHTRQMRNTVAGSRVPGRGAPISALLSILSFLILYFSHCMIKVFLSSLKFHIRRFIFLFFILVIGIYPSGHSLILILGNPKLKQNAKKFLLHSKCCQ
Assay: Calcium imaging assay (FLIPR), HEK293T-Gα16gust44 cells transfected with human TAS2R1
Assay type: cell-based
Settings: Time 22.796 s
Collected RLU values appear next to each entry.

Illustrative cases are given below, each with its answer.
{"Given smiles": "C[C@H](CCC(=O)O)[C@H]1CC[C@H]2[C@@H]3[C@H](O)C[C@@H]4C[C@H](O)CC[C@]4(C)[C@H]3C[C@H](O)[C@]12C", "RLU": "0.5227 RLU"}
{"Given smiles": "C[C@H](CCC(=O)O)[C@H]1CC[C@H]2[C@@H]3[C@H](O)C[C@@H]4C[C@H](O)CC[C@]4(C)[C@H]3CC[C@]12C", "RLU": "66.6032 RLU"}
{"Given smiles": "C[C@H](CCC(=O)O)[C@H]1CC[C@H]2[C@@H]3CC[C@@H]4C[C@H](O)CC[C@]4(C)[C@H]3CC[C@]12C", "RLU": "111.584 RLU"}

Now consider a different molecule.
RLU reported for this molecule C[C@H](CCC(=O)O)[C@H]1CC[C@H]2[C@@H]3[C@@H](O)C[C@@H]4C[C@H](O)CC[C@]4(C)[C@H]3CC[C@]12C : -14.9172 RLU

###

Target: human TAS2R4 (Homo sapiens, UniProt Q9NYW5)
Construct: expressed in transfected cells; host or cells: HEK293T-Gα16gust44
Sequence (Q9NYW5 1-299): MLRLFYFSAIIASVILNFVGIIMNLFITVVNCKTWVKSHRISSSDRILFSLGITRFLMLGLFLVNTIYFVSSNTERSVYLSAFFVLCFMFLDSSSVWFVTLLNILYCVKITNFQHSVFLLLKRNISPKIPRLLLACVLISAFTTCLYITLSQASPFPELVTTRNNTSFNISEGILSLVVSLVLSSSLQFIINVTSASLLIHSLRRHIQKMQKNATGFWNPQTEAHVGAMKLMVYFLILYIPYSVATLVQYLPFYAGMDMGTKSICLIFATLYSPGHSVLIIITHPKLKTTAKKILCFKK
Assay: Calcium imaging assay (FLIPR), HEK293T-Gα16gust44 cells transfected with human TAS2R4; also: test concentration or dose not given here
Format: cell-based
Conditions: Time (s) 245.547
Readout type: RLU, fluorescence trace
Number first, unit second: that is the form wanted.

Here C[C@H](CCC(=O)O)[C@H]1CC[C@H]2[C@@H]3[C@H](O)C[C@@H]4C[C@H](O)CC[C@]4(C)[C@H]3C[C@H](O)[C@]12C was tested on human TAS2R4 (Homo sapiens, UniProt Q9NYW5), and its RLU, fluorescence trace came to 266.514 RLU

Response field RLU, fluorescence trace (human TAS2R4 (Homo sapiens, UniProt Q9NYW5)) for item C[C@H](CCC(=O)O)[C@H]1CC[C@H]2[C@@H]3[C@@H](O)C[C@@H]4C[C@H](O)CC[C@]4(C)[C@H]3CC[C@]12C : 147.048 RLU

Summary: C[C@H](CCC(=O)NCCS(=O)(=O)O)[C@H]1CC[C@H]2[C@@H]3CC[C@@H]4C[C@H](O)CC[C@]4(C)[C@H]3CC[C@]12C , human TAS2R4 (Homo sapiens, UniProt Q9NYW5), RLU, fluorescence trace = 104.275 RLU

// assay human TAS2R4 (Homo sapiens, UniProt Q9NYW5), entry C[C@H](CCC(=O)O)[C@H]1CC[C@H]2[C@@H]3CC[C@@H]4C[C@H](O)CC[C@]4(C)[C@H]3C[C@H](O)[C@]12C , RLU, fluorescence trace value = 399.649 RLU

Tested on human TAS2R4 (Homo sapiens, UniProt Q9NYW5): C[C@H](CCC(=O)NCC(=O)O)[C@H]1CC[C@H]2[C@@H]3[C@H](O)C[C@@H]4C[C@H](O)CC[C@]4(C)[C@H]3C[C@H](O)[C@]12C . Observed RLU, fluorescence trace: 156.883 RLU

Field RLU, fluorescence trace (system: human TAS2R4 (Homo sapiens, UniProt Q9NYW5)) for entry C[C@H](CCC(=O)NCCS(=O)(=O)O)[C@H]1CC[C@H]2[C@@H]3[C@H](O)C[C@@H]4C[C@H](O)CC[C@]4(C)[C@H]3C[C@H](O)[C@]12C = 219.689 RLU
